- Tested on: RXF 393 renal
- methodSummary: NCI tumour cell line growth inhibition, 48 h
In this section we review reported TGI values for a set of compounds.

{"columns": ["compound", "targetOrTestSystem", "measuredValue"],
 "data": [
  ["COc1ccc2c(c1)Oc1nc(N)c(C#N)c(N)c1C2Sc1ccc(SC)cc1 (stereo not given)", "RXF 393 renal", "3.11 µM"],
  ["c1cnc2c(c1)-n1cccc1C1(CCOCC1)NN2", "RXF 393 renal", "> 100 µM"],
  ["CCc1nc2c(O)ccc(O)c2nc1C", "RXF 393 renal", "25.5 µM"],
  ["c1cc(-c2cscc2-c2ccsc2)cs1", "RXF 393 renal", "> 100 µM"]
]}

Specify TGI for COC(=O)N1[C@H]2Cc3c(OC)c(C)c(OC)c(OC)c3[C@@H]1/C(=C\c1cc(OC)c(OC)c(C)c1OC)N(Cc1ccccc1)C2=O and stop.
> 100 µM

Specify TGI for c1ccc2c(c1)O[As](O[As]1Oc3ccccc3O1)O2 and stop.
13 µM

Specify TGI for COc1cc(-c2c3c(cn2S(=O)(=O)c2ccccc2)-c2nc(N)sc2CC3)cc(OC)c1OC and stop.
14.5 µM

Specify TGI for CN(C)CCC1(C2=CCCC2)CC/C(=C\c2ccc3c(c2)OCO3)C1=O (stereo not given) and stop.
21.3 µM

Specify TGI for COC1=CC(c2ccc[nH]2)=N/C1=C\c1[nH]c(C)c(C(=O)CCC(=O)Oc2ccc3c(c2)CCC2C3CC[C@]3(C)C(=O)CC[C@@H]23)c1C (stereo not given in full) and stop.
> 87.4 µM

Specify TGI for C=C/C(C)=C/[C@H](C)C(=O)C[C@H](O)CC1CC(=O)NC(=O)C1 and stop.
> 100 µM

###

In this section we review reported GI50 values for a set of compounds.
- System: HS 578T breast
- methodSummary: NCI tumour cell line growth inhibition, 48 h

Study these solved cases before continuing.
{"columns": ["compound", "targetOrTestSystem", "GI50"],
 "data": [
  ["c1ccc2c(c1)O[As](O[As]1Oc3ccccc3O1)O2", "HS 578T breast", "3.47 µM"],
  ["COc1ccc(/C=C2/CN(C(=O)c3ccccc3F)C/C(=C\\c3ccc(OC)cc3)C2=O)cc1", "HS 578T breast", "2.54 µM"],
  ["CCN(CC)c1ccc(NC(C(=O)c2ccccc2)c2ccccc2)cc1 (stereo not given)", "HS 578T breast", "3.41 µM"],
  ["CN(C(=O)C1CCCCC1)c1ccccc1I(=O)=O", "HS 578T breast", "52.9 µM"]
]}

Read the next record carefully.
Specify GI50 for COC1=CC(c2ccc[nH]2)=N/C1=C\c1[nH]c(C)c(C(=O)CCC(=O)Oc2ccc3c(c2)CCC2C3CC[C@]3(C)C(=O)CC[C@@H]23)c1C (stereo not given in full) and stop.
14.2 µM

###

- Tested on: LOX IMVI melanoma
- methodSummary: NCI tumour cell line growth inhibition, 48 h
observable: TGI (µM)
The reply should contain only the number, in µM.

{"columns": ["compound", "measureUnit", "measuredValue"],
 "data": [
  ["O=C1C(=O)c2ccc(Br)cc2-c2cc(Br)ccc21", "µM", 2.13]
]}

Read the next record carefully.
Tell me its TGI on LOX IMVI melanoma: O=C(CCN1CCCCC1CCO)Nc1ccc2c(c1)C(=O)c1ccc(NC(=O)CCN3CCCCC3CCO)cc1C2=O (stereo not given)
13.2

###

- System: HT29 colon
- methodSummary: NCI tumour cell line growth inhibition, 48 h; in the data active = GI50 below about 0.43 µM; inactive = the rest
Assign a class; possible classes are 1 for active, -1 for inactive

{"columns": ["compound", "targetOrTestSystem", "category"],
 "data": [
  ["CO/N=C(\\c1ccccc1)c1cnn(-c2ccccc2)c1N", "HT29 colon", -1],
  ["Cn1ncc2cc(-c3cnc(N)c(Cl)c3N3CCC4(CCNC4=O)CC3)ccc21", "HT29 colon", -1],
  ["COc1ccc(-c2nc(-c3nc4ccc(F)cc4[nH]3)cc3c2[nH]c2ccccc23)cc1", "HT29 colon", -1],
  ["CCC(=O)Sc1ccccc1C(=O)Nc1ccc(Cl)cc1", "HT29 colon", -1],
  ["O=C(NNc1nc2cc(F)ccc2n2c(CN3CCOCC3)ccc12)c1ccccc1", "HT29 colon", -1]
]}

How did this test come out for Cn1ncc2c(Nc3ccc(Br)cc3)nc(Nc3ccc(Br)cc3)nc21 ?
-1

How did this test come out for CCOc1ccc(NC(=O)Nc2cc(C(C)C)ccc2C)cc1 ?
-1

How did this test come out for O=C1Nc2ccc(F)c3c(OCCO)cc(-c4ccc[nH]4)c1c23 ?
-1

How did this test come out for CN(C(=O)C1CCCCC1)c1ccccc1I(=O)=O ?
-1

How did this test come out for C[C@@H]1O[C@@H](O[C@H]2C[C@@H](O)[C@]3(CO)C4C(CC[C@]3(O)C2)[C@@]2(O)CC[C@H](C3=CC(=O)OC3)[C@@]2(C)C[C@H]4O)[C@H](O)[C@H](O)[C@H]1O (some centres undefined) ?
1

How did this test come out for [Cu+2].[Cu+2].[O-]c1ccccc1C=Nc1ccccc1[O-].[O-]c1ccccc1C=Nc1ccccc1[O-] ?
-1

How did this test come out for O=C(Cn1ccnc1[N+](=O)[O-])N(CCO)CCO ?
-1

How did this test come out for COC1/C=C/O[C@@]2(C)Oc3c(C)c(O)c4c(O)c(cc(O)c4c3C2=O)NC(=O)/C(C)=C\C=C\[C@H](C)C(O)[C@@H](C)[C@@H](O)[C@@H](C)[C@H](OC(C)=O)[C@@H]1C (some centres undefined) ?
-1

How did this test come out for c1ccc2c(c1)O[As](O[As]1Oc3ccccc3O1)O2 ?
-1

###

- Tested on: HOP-92 NSCLC
- methodSummary: NCI tumour cell line growth inhibition, 48 h; in the data active means GI50 below about 0.43 µM; inactive means the rest
Assign a class; possible classes are t = active, f = inactive

{"columns": ["compound", "category"],
 "data": [
  ["OCCN1CCN(CCCN2c3ccccc3Sc3ccc(C(F)(F)F)cc32)CC1", "f"]
]}

Continue with the compound presented below.
How did this test come out for CCCOC(=O)N[C@H]1CCc2c(Br)c(OC)c(OC)c(OC)c2-c2ccc(SC)c(=O)cc21 ?
t

###

- Tested on: SN12C renal
- methodSummary: NCI tumour cell line growth inhibition, 48 h
Where a SMILES comes first, the peptide text is derived from it. [ ]: non-standard residue; d: D form. The star is where a group is joined. hSer = N[CH](CCO)C(=O)O; Boc = CC(C)(C)OC(=O)*
observable: TGI

Study these solved cases before continuing.
{"columns": ["compound", "TGI"],
 "data": [
  ["O=S(=O)(O)c1ccc(NN(c2c(O)ccc3ccccc23)S(=O)(=O)O)cc1", "> 100 µM"],
  ["Nc1c(Br)cc(-c2cc(Br)c(N)c(Br)c2)cc1Br", "> 100 µM"],
  ["N#Cc1c(-c2ccco2)c2c(n(C3OC(CO)C(O)C(O)C3O)c1=S)CCCC2 (stereo not drawn)", "> 100 µM"]
]}

Specify TGI for Cc1ccc(OP2(=O)Oc3ccc4ccccc4c3CN2c2ccc(Cl)cc2)cc1C (stereo not drawn) and stop.
> 100 µM

Specify TGI for CCC(=O)Sc1ccccc1C(=O)Nc1ccc(Cl)cc1 and stop.
41.8 µM

Specify TGI for COCCC(NC(=O)C(CC(C)C)NC(=O)OC(C)(C)C)C(N)=O (stereo not drawn) (Boc-Leu-[hSer](Me)-NH2; configuration not given here) and stop.
> 100 µM

Specify TGI for COc1ccc2c(O)c3[n+](cc2c1OC)CCc1cc2c(cc1-3)OCO2 and stop.
> 100 µM

Specify TGI for CN(C)CC1CCC/C(=C\c2ccc(N(C)C)cc2)C1=O (stereo not drawn) and stop.
29.6 µM

Specify TGI for CC1(C)CCc2c(cc3c(c2O)CCC(C)(C)O3)O1 and stop.
> 100 µM

Specify TGI for COC1=CC(c2ccc[nH]2)=N/C1=C\c1[nH]c(C)c(C(=O)CCC(=O)Oc2ccc3c(c2)CCC2C3CC[C@]3(C)C(=O)CC[C@@H]23)c1C (stereo partly drawn) and stop.
> 100 µM

Specify TGI for CCCCCCC1CCC2CCCC(C)N12 (stereo not drawn) and stop.
> 100 µM

Specify TGI for COc1ccccc1-c1cc2c3c(nc4ccccc42)C(=O)c2cccnc2-c3n1 and stop.
30.1 µM

Specify TGI for C=C1C(=O)O[C@@H]2C[C@]3(C)[C@@H](C[C@H]12)[C@](C)(O)CC[C@@H]3O and stop.
> 100 µM

Specify TGI for O=C1CC(NC(=O)C(F)(F)F)c2c(Br)sc(N3CCC(c4ccccc4)CC3)c21 (stereo not drawn) and stop.
> 100 µM

Specify TGI for O=c1/c(=C/c2cccc3ccccc23)sc2nc3ccccc3n12 and stop.
> 100 µM

Specify TGI for O=C(Cc1ccc(Cl)c(Cl)c1)NCCCN1CCN(CCCN2CCCCC2)CC1 and stop.
39 µM

Specify TGI for COc1ccc2c(c1)O/C(=C\c1cccc(OCC(=O)Nc3nc4ccccc4s3)c1)C2=O and stop.
> 100 µM

Specify TGI for c1ccc(COc2ccc(C[P+](c3ccccc3)(c3ccccc3)c3ccccc3)cc2)cc1 and stop.
5.03 µM

Specify TGI for CC12CC3c4ccccc4CN1C3(c1ccccc1)OC2=O (stereo not drawn) and stop.
> 100 µM

Specify TGI for CCOC(=O)CC(C)C(C#N)(OP1(=O)OC(c2ccccc2)C(C)N1C)c1ccccc1 (stereo not drawn) and stop.
> 100 µM
